Each recorded value in this set is attributed to patent EP4335840A1.

Overview of reported Inhibition Rifampicine across a group of compounds:
Molecular target: OATP1B1 (Homo sapiens)
Sequence (Q9Y6L6 1-691): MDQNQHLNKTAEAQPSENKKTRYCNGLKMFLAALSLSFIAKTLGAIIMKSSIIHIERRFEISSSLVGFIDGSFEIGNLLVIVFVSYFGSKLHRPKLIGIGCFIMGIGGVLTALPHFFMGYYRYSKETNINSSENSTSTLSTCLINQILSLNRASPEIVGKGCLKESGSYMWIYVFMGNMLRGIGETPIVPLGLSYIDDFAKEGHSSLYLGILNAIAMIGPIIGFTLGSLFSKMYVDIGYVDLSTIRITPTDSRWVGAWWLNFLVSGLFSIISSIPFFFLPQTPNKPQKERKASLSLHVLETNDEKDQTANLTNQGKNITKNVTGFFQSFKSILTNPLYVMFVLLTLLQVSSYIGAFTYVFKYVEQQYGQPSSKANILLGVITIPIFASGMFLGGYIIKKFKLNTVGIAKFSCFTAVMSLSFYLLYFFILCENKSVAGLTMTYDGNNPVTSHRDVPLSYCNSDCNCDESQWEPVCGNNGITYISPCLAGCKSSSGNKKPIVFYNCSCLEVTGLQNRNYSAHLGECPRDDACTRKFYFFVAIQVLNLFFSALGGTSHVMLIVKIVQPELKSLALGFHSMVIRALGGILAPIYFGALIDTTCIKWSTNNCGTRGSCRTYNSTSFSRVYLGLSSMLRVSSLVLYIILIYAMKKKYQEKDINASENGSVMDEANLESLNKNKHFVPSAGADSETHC
Assay: Uptake into stable transfected OATP1B1 HEK 293 cells
Format: cell-based
Settings: OATP1B1-HEK 293 cell uptake with Rifampicine
Record the value in % inhibition, omitting the unit from your answer.

Previously resolved entries follow.
Bench note: what Inhibition Rifampicine did CCOCCOCCOc1ccc(C[C@H]2CN(CC(=O)[O-])CCN(CC(=O)[O-])CCN(CC(=O)O)CCN2CC(=O)[O-])nc1.[Gd+3] show?
2

Please look up its Inhibition Rifampicine: COCCOCCOCCOc1ccc(C[C@H]2CN(CC(=O)[O-])CCN(CC(=O)[O-])CCN(CC(=O)O)CCN2CC(=O)[O-])cc1.[Gd+3]
21

// moving on: another record for Inhibition Rifampicine
Endpoint output: Inhibition Rifampicine of CCOCCOc1ccc(C[C@H]2CN(CC(=O)[O-])CCN(CC(=O)[O-])CCN(CC(=O)O)CCN2CC(=O)[O-])cc1.[Gd+3] . Value?
29

###

Experiment: Relaxivity measurements at 1.41 T in water and human plasma
Assay type: physicochemical
Conditions: human plasma, 37°C, normalized to Gd
Method: Relaxivity measurements at 1.41 T were performed using a MiniSpec mq60 spectrometer (Bruker Analytik, Karlsruhe, Germany) operating at a resonance frequency of 60 MHz and a temperature of 37°C. The T1 relaxation times were determined using the standard inversion recovery (IR) method with a fixed relaxation delay of at least 5 × T1. The variable inversion time (TI) was calculated automatically by the standard software of the MiniSpec mq60 (8 steps). […]
readout type: r1 human plasma (L/mmol/s)
Reply numerically in L/mmol/s, unit not repeated.

# get_value(readout='r1 human plasma', item= CCOCCOc1ccc(C[C@H]2CN(CC(=O)[O-])CCN(CC(=O)[O-])CCN(CC(=O)O)CCN2CC(=O)[O-])cc1.[Gd+3] [Example 4] )
6.6

Please report the recorded r1 human plasma for COCCOCCOCCOc1ccc(C[C@H]2CN(CC(=O)[O-])CCN(CC(=O)[O-])CCN(CC(=O)O)CCN2CC(=O)[O-])cc1.[Gd+3] [Example 1] .
6.6

Form field: reported r1 human plasma of COCCOCCOCCOc1ccc(C[C@@H]2CN(CC(=O)[O-])CCN(CC(=O)[O-])CCN(CC(=O)O)CCN2CC(=O)[O-])cc1.[Gd+3] [Example 3]
6.8

Here's the next entry for you.
What value of measured r1 human plasma is listed for CCOCCOCCOc1ccc(C[C@H]2CN(CC(=O)[O-])CCN(CC(=O)[O-])CCN(CC(=O)O)CCN2CC(=O)[O-])cc1.[Gd+3] [Example 2] ?
5.9

###

assay: Complex stability (transmetallation with Zn2+, proton relaxometry); type: physicochemical; conditions: 72 hours, 2.5 mM Zn2+, 26 mM phosphate buffer, 37°C, pH 7.4; 1.41 T
readout type: Stability (transmetallation stability, T1 relaxation rates R1n/R10) (%)
Kindly answer with a numeric value in %, unit omitted.

Below are worked cases with known answers.
If you can, please state the reported Stability (transmetallation stability, T1 relaxation rates R1n/R10) value of CCOc1ccc(CC2CN(CC(=O)[O-])CCN(CC(=O)[O-])CCN(CC(=O)O)CCN2CC(=O)[O-])cc1.[Gd+3] (stereo not shown) [Example 7] .
98

// lookup Stability (transmetallation stability, T1 relaxation rates R1n/R10) for CCOCCOCCOc1ccc(C[C@H]2CN(CC(=O)[O-])CCN(CC(=O)[O-])CCN(CC(=O)O)CCN2CC(=O)[O-])cc1.[Gd+3] [Example 2]
95

Next compound, please.
Param item = CCOCCOCCOCCOc1ccc(C[C@H]2CN(CC(=O)[O-])CCN(CC(=O)[O-])CCN(CC(=O)O)CCN2CC(=O)[O-])cc1.[Gd+3] [Example 5] ; retrieve measured Stability (transmetallation stability, T1 relaxation rates R1n/R10).
96

###

Target: OATP1B1 (Homo sapiens, UniProt Q9Y6L6)
Sequence (Q9Y6L6 1-691): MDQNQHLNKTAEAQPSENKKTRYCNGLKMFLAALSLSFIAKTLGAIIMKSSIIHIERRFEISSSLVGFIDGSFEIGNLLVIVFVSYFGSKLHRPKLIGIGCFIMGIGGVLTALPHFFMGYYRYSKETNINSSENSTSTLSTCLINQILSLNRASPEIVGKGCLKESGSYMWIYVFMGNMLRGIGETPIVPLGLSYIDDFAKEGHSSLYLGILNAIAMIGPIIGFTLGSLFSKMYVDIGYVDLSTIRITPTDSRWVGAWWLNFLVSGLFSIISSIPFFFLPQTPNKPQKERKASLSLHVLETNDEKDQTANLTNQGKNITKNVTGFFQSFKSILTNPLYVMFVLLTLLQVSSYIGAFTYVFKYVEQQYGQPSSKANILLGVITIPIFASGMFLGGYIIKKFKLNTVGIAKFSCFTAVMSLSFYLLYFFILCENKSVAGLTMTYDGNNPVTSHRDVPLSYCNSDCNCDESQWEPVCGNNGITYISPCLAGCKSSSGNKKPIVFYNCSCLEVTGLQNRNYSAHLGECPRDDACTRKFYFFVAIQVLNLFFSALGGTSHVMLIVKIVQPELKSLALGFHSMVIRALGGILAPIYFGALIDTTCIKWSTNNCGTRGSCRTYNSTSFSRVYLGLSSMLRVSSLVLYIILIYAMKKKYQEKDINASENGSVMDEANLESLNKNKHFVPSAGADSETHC
Test: Uptake into stable transfected OATP1B1 HEK 293 cells
Format: cell-based
Conditions: OATP1B1-HEK 293 cell uptake with Rifampicine
readout type: Inhibition Rifampicine (% inhibition)
Field: numeric (% inhibition). Do not append units.

Fill in the blank: the reported Inhibition Rifampicine of COCCOCCOCCOc1ccc(C[C@@H]2CN(CC(=O)[O-])CCN(CC(=O)[O-])CCN(CC(=O)O)CCN2CC(=O)[O-])cc1.[Gd+3] is ____.
31

Looking for the measured Inhibition Rifampicine of CCOCCOCCOc1ccc(C[C@H]2CN(CC(=O)[O-])CCN(CC(=O)[O-])CCN(CC(=O)O)CCN2CC(=O)[O-])cc1.[Gd+3] , can you help?
0

Record request: Inhibition Rifampicine value, item CCOc1ccc(CC2CN(CC(=O)[O-])CCN(CC(=O)[O-])CCN(CC(=O)O)CCN2CC(=O)[O-])cc1.[Gd+3] (stereo not shown)
78

Can you share its Inhibition Rifampicine? I mean this compound: CCOCCOCCOCCOc1ccc(C[C@H]2CN(CC(=O)[O-])CCN(CC(=O)[O-])CCN(CC(=O)O)CCN2CC(=O)[O-])cc1.[Gd+3]
41

###

Assay: Relaxivity measurements at 1.41 T in water and human plasma
Assay type: physicochemical
Conditions: water, 37°C, normalized to Gd
Experimental: Relaxivity measurements at 1.41 T were performed using a MiniSpec mq60 spectrometer (Bruker Analytik, Karlsruhe, Germany) operating at a resonance frequency of 60 MHz and a temperature of 37°C. The T1 relaxation times were determined using the standard inversion recovery (IR) method with a fixed relaxation delay of at least 5 × T1. The variable inversion time (TI) was calculated automatically by the standard software of the MiniSpec mq60 (8 steps). […]
If the reported r1 water equals or exceeds 5 L/mmol/s, assign yes. If not, assign no.

Record excerpt, results attached:
Given the entry CCOCCOCCOc1ccc(C[C@H]2CN(CC(=O)[O-])CCN(CC(=O)[O-])CCN(CC(=O)O)CCN2CC(=O)[O-])nc1.[Gd+3] , answer whether its r1 water meets or surpasses 5 L/mmol/s.
yes

Does r1 water meet or surpass 5 L/mmol/s for CCOc1ccc(CC2CN(CC(=O)[O-])CCN(CC(=O)[O-])CCN(CC(=O)O)CCN2CC(=O)[O-])cc1.[Gd+3] (stereo not shown) ?
no

Moving on to the next compound.
Dear colleague, could you confirm whether CCOCCOc1ccc(C[C@H]2CN(CC(=O)[O-])CCN(CC(=O)[O-])CCN(CC(=O)O)CCN2CC(=O)[O-])cc1.[Gd+3] has r1 water at or above 5 L/mmol/s?
no
